Entries and their Ki
Molecular target: Serine/threonine-protein kinase mTOR (Homo sapiens, UniProt P42345)
Test: Inhibition of mTOR
Reply with the number and its unit after it.

Example entries and their recorded answers appear below.
structure.as.smiles: Cc1cc(C(=O)Nc2ccc(N(C)C)nc2)c2nc(C)nc(N)c2c1
value.observed: 162 nM
--
structure.as.smiles: Cc1nc(N)c2cc(CN3CCOCC3)cc(C(=O)Nc3ccn[nH]3)c2n1
value.observed: 13 nM
--
structure.as.smiles: Cc1cc(C(=O)Nc2ccn[nH]2)c2nc(C)nc(N)c2c1
value.observed: 3 nM
--
structure.as.smiles: Cc1cc(C(=O)Nc2cn[nH]c2)c2nc(C)nc(N)c2c1
value.observed: 84 nM

[ask] Bench note: what Ki did "Cc1cc(C(=O)Nc2cnc3[nH]ccc3c2)c2nc(C)nc(N)c2c1" show?
[reply] 17 nM

[ask] Please give the result for "Cc1ccc(NC(=O)c2c(C)ccc3c(N)nc(C)nc23)cn1" too.
[reply] 3250 nM

[ask] Next record, please: "Cc1nc(N)c2cccc(C(=O)Nc3cnc4[nH]ccc4c3)c2n1"
[reply] 5 nM

----------
Target: Phosphatidylinositol 4,5-bisphosphate 3-kinase catalytic subunit alpha isoform (Homo sapiens, UniProt P42336)
Sequence (P42336 whole entry, canonical isoform): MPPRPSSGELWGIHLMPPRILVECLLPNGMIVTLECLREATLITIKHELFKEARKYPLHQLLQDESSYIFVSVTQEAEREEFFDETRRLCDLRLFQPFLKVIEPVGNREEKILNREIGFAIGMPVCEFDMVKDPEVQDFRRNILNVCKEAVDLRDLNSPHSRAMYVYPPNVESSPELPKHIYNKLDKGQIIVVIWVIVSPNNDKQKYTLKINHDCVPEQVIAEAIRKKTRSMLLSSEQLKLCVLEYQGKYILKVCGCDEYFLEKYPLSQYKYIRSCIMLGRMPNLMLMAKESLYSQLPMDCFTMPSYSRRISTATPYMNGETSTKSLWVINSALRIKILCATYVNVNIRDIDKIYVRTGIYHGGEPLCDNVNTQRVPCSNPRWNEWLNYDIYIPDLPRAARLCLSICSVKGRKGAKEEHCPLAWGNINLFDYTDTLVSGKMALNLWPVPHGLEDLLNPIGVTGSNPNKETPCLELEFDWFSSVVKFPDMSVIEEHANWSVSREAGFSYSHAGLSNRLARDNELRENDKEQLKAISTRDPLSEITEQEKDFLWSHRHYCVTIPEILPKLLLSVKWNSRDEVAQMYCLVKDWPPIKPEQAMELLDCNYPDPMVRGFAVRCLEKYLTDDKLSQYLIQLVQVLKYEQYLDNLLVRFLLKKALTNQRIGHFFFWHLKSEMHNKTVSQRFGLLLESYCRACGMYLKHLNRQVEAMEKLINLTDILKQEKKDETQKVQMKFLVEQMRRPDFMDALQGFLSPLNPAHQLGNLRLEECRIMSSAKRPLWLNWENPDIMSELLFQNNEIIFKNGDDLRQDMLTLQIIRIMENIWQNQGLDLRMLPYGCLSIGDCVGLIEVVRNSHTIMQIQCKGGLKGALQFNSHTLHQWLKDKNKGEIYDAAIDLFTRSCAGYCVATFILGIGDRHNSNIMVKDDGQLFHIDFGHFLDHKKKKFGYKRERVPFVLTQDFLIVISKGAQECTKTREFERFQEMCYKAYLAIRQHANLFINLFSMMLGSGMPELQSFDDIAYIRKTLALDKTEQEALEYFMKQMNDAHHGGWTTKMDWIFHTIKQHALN
Assay: Inhibition of PI3Kalpha-phosphorylation at S473 residue in human BT20 cells
measured.endpoint: pIC50
FYI, pIC50 means -log10 of a concentration in mol per litre.

# annotated cases, reported pIC50 shown
structure.as.smiles: Cc1ccc(NC(=O)c2cccc3c(N)nc(C)nc23)cn1
pIC50: 6.95
--
structure.as.smiles: Cc1cc(C(=O)Nc2cnc3[nH]ccc3c2)c2nc(C)nc(N)c2c1
pIC50: 7.37
--
structure.as.smiles: Cc1cc(C(=O)Nc2cn[nH]c2)c2nc(C)nc(N)c2c1
pIC50: 7.62

[ask] # lookup: pIC50 of "Cc1cc(C(=O)Nc2ccn[nH]2)c2nc(C)nc(N)c2c1"
[reply] 7.46

[ask] One more compound: "Cc1cc(C(=O)Nc2ccc(C)nc2)c2nc(C)nc(N)c2c1"
[reply] 7.06
